Experiment: Brain concentrations and brain pharmacokinetics after a single oral (gavage) dose in fasted male Sprague-Dawley rats, LC-MS/MS
Type: in vivo
Conditions: male, Sprague-Dawley, rat, brain, po, 2 mg/kg, brain; oral gavage 2 mg/kg; fasted male Sprague Dawley rats; read-out: AUClast
measurement.name: AUC(0-t) (ng·h/mL)
Kindly provide the numeric value in ng·h/mL only, without the unit symbol.

[2H]C([2H])([2H])n1c(=O)c2c(ncn2C([2H])([2H])[2H])n(C([2H])([2H])[2H])c1=O | 16000

// switching to the query molecule
Value of AUC(0-t) reported for the molecule Cn1c(=O)c2c(ncn2C)n(C)c1=O [Caffeine, reference compound] is 11000

* * *

Experiment: Brain concentrations and brain pharmacokinetics after a single oral (gavage) dose in fasted male Sprague-Dawley rats, LC-MS/MS
Type: in vivo
Conditions: male, Sprague-Dawley, rat, brain, po, 2 mg/kg; oral dose 2 mg/kg; rats; read-out: AUClast in brain
measurement.name: AUC(0-t) (ng·h/mL)
Kindly provide the numeric value in ng·h/mL only, without the unit symbol.

Cn1c(=O)c2c(ncn2C)n(C)c1=O [Caffeine, reference compound] | 11000

// switching to the query molecule
Value of AUC(0-t) reported for the molecule [2H]C([2H])([2H])n1c(=O)c2c(ncn2C([2H])([2H])[2H])n(C([2H])([2H])[2H])c1=O [Compound D9-Caffeine, D9-caffeine] is 16000

* * *

Assay: in vivo
Conditions: male, Sprague-Dawley, rat, plasma, po, 2 mg/kg
measurement.name: AUC(0-inf) (ng·h/mL)
Kindly provide the numeric value in ng·h/mL only, without the unit symbol.

Cn1c(=O)c2c(ncn2C)n(C)c1=O [Caffeine, reference compound] | 16000

// switching to the query compound
Value of AUC(0-inf) reported for the compound [2H]C([2H])([2H])n1c(=O)c2c(ncn2C([2H])([2H])[2H])n(C([2H])([2H])[2H])c1=O is 27000

* * *

Test: Brain concentrations and brain pharmacokinetics after a single oral (gavage) dose in fasted male Sprague-Dawley rats, LC-MS/MS
Format: in vivo
Details: male, Sprague-Dawley, rat, brain, po, 2 mg/kg, 8 hour post dose; oral gavage 2 mg/kg; fasted male Sprague-Dawley rats; n = 3/time point
measurement.name: concentration at 8 h (ng/g)
Kindly provide the numeric value in ng/g only, without the unit symbol.

Value of concentration at 8 h reported for the compound Cn1c(=O)c2c(ncn2C)n(C)c1=O [Caffeine, reference compound] is 553

* * *

// half-life lookup, one value per entry
Test: in vivo
Details: male, Sprague-Dawley, rat, plasma, po, 2 mg/kg
Kindly provide the numeric value in h only, without the unit symbol.

[2H]C([2H])([2H])n1c(=O)c2c(ncn2C([2H])([2H])[2H])n(C([2H])([2H])[2H])c1=O [Compound D9-Caffeine, D9-caffeine] | 5

// switching to the query compound
Value of half-life reported for the compound Cn1c(=O)c2c(ncn2C)n(C)c1=O [Caffeine, reference compound] is 1.9

Data provenance: patent US20200390128A1
